Reported inhibition at 1 µM values for the following compounds.
- systemUnderTest: cSRC(h) (Homo sapiens)
- Construct: purchased Upstate Biotechnology (Dundee, UK), KinaseProfiler service
- Sequence (P12931 whole entry): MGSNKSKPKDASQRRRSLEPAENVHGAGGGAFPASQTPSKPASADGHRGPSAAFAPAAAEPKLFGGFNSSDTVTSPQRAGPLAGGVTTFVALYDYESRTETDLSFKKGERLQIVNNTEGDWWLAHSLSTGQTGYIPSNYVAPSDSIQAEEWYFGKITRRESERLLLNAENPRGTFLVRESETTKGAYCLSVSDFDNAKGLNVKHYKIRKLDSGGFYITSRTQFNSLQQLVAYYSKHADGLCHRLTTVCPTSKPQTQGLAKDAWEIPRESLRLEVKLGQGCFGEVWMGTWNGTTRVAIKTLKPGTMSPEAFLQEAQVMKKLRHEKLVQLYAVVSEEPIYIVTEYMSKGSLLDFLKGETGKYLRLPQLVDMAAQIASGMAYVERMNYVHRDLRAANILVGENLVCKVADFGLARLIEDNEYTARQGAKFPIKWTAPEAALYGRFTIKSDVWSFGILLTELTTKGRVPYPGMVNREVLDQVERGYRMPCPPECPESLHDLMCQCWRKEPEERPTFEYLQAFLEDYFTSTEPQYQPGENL
- testSummary: KinaseProfiler assay (Upstate), cSRC
- Type: biochemical
- experimentalContext: 1 μM
Give a bare numeral; the unit % is implied.

> print(dat)
                                   compound  unittag  measuredresult
1  C[C@H](Nc1cncc(Cl)n1)c1cccc(NC(=O)c2cccc(C(F)(F)F)c2)c1 [Compound 114]        %              80
2  C[C@H](Nc1cncc(-c2cccc(N3CCOCC3)c2)n1)c1cccc(NC(=O)c2cccc(C(F)(F)F)c2)c1 [Compound 149]        %              96

Param readout = inhibition at 1 µM; param system = cSRC(h) (Homo sapiens); param query = C[C@H](Nc1cncc(-c2ccc(N3CCN(C)CC3)cc2)n1)c1cccc(NC(=O)c2cccc(C(F)(F)F)c2)c1 [Compound 148] ; response: value 96

And then Cc1cccc(C(=O)Nc2ccc(C)c([C@H](C)Nc3cncc(Cl)n3)c2)c1 [Compound 168] , what is it? 95

And then Cc1cccc(C(=O)Nc2cccc([C@H](C)Nc3cncc(-n4ccnc4)n3)c2)c1 [Compound 143] , what is it? 65

* * *

These records show IC50 for kinase domain of human c-kit (Homo sapiens).

Use the examples below as a reference point.
> print(dat)
                                givensmiles  measuredresult
1  C[C@H](Nc1cncc(-c2cccc(NS(C)(=O)=O)c2)n1)c1cccc(NC(=O)c2cccnc2)c1        < 100 nM
2  C[C@H](Nc1cncc(-c2ccc(CN3CCN(C)CC3)cc2)n1)c1cccc(NC(=O)c2cccc(C(F)(F)F)c2)c1        < 100 nM
3  C[C@H](Nc1cncc(-c2cccnc2)n1)c1cccc(NC(=O)c2cccnc2)c1       < 1000 nM
4  C[C@H](Nc1cncc(-c2ccc(N3CCOCC3)nc2)n1)c1cccc(NC(=O)c2cccc(C(F)(F)F)c2)c1       < 1000 nM
5  Cc1cn(-c2cncc(N[C@@H](C)c3cccc(NC(=O)c4cccc(C(F)(F)F)c4)c3)n2)cn1        < 100 nM
6  COc1cccc(-c2cncc(N[C@@H](C)c3cccc(NC(=O)c4cccnc4)c3)n2)c1        < 100 nM

Param readout = IC50; param system = kinase domain of human c-kit (Homo sapiens); param query = COc1cccc(C(=O)Nc2cccc([C@H](C)Nc3cncc(-c4cccc(N5CCOCC5)c4)n3)c2)c1 ; response: value < 100 nM

And then COc1ccc(-c2cncc(N[C@@H](C)c3cccc(NC(=O)c4cccnc4)c3)n2)c(OC)n1 , what is it? < 100 nM

And then Cc1cncc(C(=O)Nc2cccc([C@H](C)Nc3cncc(-c4ccc(N5CCOCC5)nc4)n3)c2)c1 , what is it? < 100 nM

And then COc1cc(-c2cncc(N[C@@H](C)c3cccc(NC(=O)c4cccnc4)c3)n2)ccc1O , what is it? < 100 nM

And then Cc1cncc(C(=O)Nc2cccc([C@H](C)Nc3cncc(-c4ccc(N5CCOCC5)cc4)n3)c2)c1 , what is it? < 100 nM

And then C[C@H](Nc1cncc(-c2cn[nH]c2)n1)c1cccc(NC(=O)c2cccnc2)c1 , what is it? < 100 nM

And then COc1cccc(-c2cncc(N[C@@H](C)c3cccc(NC(=O)c4cccc(C)c4)c3)n2)c1 , what is it? < 1000 nM

And then Cc1cncc(C(=O)Nc2cccc([C@H](C)Nc3cncc(Cl)n3)c2)c1 , what is it? < 100 nM

* * *

- systemUnderTest: Flt4(h) (Homo sapiens)
- Construct: purchased Upstate Biotechnology (Dundee, UK), KinaseProfiler service
- Sequence (P35916 25-1363): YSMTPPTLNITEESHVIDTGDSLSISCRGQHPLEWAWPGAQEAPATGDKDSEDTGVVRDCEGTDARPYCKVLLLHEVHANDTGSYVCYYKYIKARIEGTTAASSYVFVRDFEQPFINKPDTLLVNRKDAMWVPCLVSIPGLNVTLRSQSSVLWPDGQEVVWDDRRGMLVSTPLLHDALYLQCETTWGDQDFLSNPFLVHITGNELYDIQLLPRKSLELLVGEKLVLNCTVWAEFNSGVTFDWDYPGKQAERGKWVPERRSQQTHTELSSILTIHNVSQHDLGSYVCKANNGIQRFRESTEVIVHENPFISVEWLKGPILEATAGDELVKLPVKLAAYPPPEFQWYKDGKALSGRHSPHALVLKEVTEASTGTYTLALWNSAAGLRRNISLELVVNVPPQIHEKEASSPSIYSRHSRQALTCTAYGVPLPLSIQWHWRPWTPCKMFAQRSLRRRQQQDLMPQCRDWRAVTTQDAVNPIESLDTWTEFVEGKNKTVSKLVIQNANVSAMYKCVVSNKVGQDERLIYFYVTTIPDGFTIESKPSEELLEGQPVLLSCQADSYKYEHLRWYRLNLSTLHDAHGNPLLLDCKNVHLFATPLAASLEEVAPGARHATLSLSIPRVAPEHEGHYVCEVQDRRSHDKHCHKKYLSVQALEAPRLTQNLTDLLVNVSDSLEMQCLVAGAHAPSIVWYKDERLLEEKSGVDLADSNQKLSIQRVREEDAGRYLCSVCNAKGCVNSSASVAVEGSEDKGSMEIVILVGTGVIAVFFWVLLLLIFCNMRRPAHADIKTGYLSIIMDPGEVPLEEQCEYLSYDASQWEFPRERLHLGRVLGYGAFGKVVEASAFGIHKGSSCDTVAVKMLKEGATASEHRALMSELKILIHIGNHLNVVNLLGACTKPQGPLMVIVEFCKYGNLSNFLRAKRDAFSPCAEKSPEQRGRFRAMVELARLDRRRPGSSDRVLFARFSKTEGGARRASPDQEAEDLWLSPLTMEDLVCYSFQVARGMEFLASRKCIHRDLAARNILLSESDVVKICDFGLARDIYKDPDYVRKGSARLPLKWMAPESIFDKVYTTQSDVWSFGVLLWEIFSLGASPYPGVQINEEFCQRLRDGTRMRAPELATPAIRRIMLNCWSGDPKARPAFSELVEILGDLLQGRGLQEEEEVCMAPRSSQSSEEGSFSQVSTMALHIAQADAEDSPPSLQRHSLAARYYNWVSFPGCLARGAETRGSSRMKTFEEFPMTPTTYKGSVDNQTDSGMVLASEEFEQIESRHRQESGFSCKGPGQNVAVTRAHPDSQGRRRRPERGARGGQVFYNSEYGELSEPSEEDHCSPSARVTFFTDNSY
- testSummary: KinaseProfiler assay (Upstate), Flt4
- Type: biochemical
- experimentalContext: 1 μM
endpointLabel: inhibition at 1 µM (%)
Give a bare numeral; the unit % is implied.

> print(dat)
                                   compound  measuredresult
1  C[C@H](Nc1cncc(-c2ccc(N3CCN(C)CC3)cc2)n1)c1cccc(NC(=O)c2cccc(C(F)(F)F)c2)c1 [Compound 148]              99
2  Cc1cccc(C(=O)Nc2cccc([C@H](C)Nc3cncc(-c4ccc(S(N)(=O)=O)cc4)n3)c2)c1 [Compound 77]              97
3  C[C@H](Nc1cncc(-c2cccc(N3CCOCC3)c2)n1)c1cccc(NC(=O)c2cccc(C(F)(F)F)c2)c1 [Compound 149]              99

Consider the record given below.
Consider the compound shown here: Cc1cccc(C(=O)Nc2cccc([C@H](C)Nc3cncc(C(N)=O)n3)c2)c1 [Compound 133] What is its recorded inhibition at 1 µM? 100
